TESTED ON: tobramycin-binding aptamer
ASSAY TEXT: Cyclic voltammetry (ΔEP / IP) interrogation of tobramycin-detecting E-AB sensors
CONDITIONS: CV at 5 V·s^−1, phosphate-buffered saline, Hill fit, 5 electrodes; read-out: KD (dissociation constant from ΔEP dose-response curve)
MEASURE NAME: Kd (µM)
Field: numeric (µM). Do not append units.

Tell us which Kd value is on record for NC[C@H]1O[C@H](O[C@H]2[C@H](O)[C@@H](O[C@H]3O[C@H](CO)[C@@H](O)[C@H](N)[C@H]3O)[C@H](N)C[C@@H]2N)[C@H](N)C[C@@H]1O
80
